Ratio pIC50: recorded values
experiment: Selectivity ratio of pIC50 for full length recombinant human N-terminal GST tagged HDAC6 expressed in baculovirus infected Sf9 cells to pIC50 for full length recombinant human C-terminal His/Flag-tagged HDAC1 expressed in baculovirus infected Sf9 cells
quantity: Ratio pIC50

INSERT INTO assay_data (smilesnotation, quantity, result) VALUES
  ('CCCc1nn(C)c2c(=O)[nH]c(-c3cc(NC4CCN(c5ncc(C(=O)NO)cn5)CC4)ccc3OCC)nc12', 'Ratio pIC50', '> 0.6'),
  ('CCCc1nn(C)c2c(=O)[nH]c(-c3cc(N4CCC5(CCN(c6ncc(C(=O)NO)cn6)CC5)C4)ccc3OCC)nc12', 'Ratio pIC50', '> 0.6'),
  ('CCCc1nn(C)c2c(=O)[nH]c(-c3cc(CN4CCN(c5ncc(C(=O)NO)cn5)CC4)ccc3OCC)nc12', 'Ratio pIC50', '> 1'),
  ('CCCc1nn(C)c2c(=O)[nH]c(-c3cc(S(=O)(=O)N4CCN(c5ncc(C(=O)NO)cn5)CC4)ccc3OCC)nc12', 'Ratio pIC50', '> 1'),
  ('CCCc1nn(C)c2c(=O)[nH]c(-c3cc(N(C)C4CCN(c5ncc(C(=O)NO)cn5)CC4)ccc3OCC)nc12', 'Ratio pIC50', '> 1'),
  ('CCCc1nn(C)c2c(=O)[nH]c(-c3cc(NCC4CCN(c5ncc(C(=O)NO)cn5)CC4)ccc3OCC)nc12', 'Ratio pIC50', '> 0.6'),
  ('CCCc1nn(C)c2c(=O)[nH]c(-c3cc(CC4CCN(c5ncc(C(=O)NO)cn5)CC4)ccc3OCC)nc12', 'Ratio pIC50', 1.4);

---

biological target: Protein deacetylase HDAC6 (Homo sapiens); test: Inhibition of full length recombinant human N-terminal GST tagged HDAC6 expressed in baculovirus infected Sf9 cells using fluorogenic HDAC substrate after 30 mins by fluorescence analysis
quantity: IC50 (nM)

INSERT INTO assay_data (compound, targetdesc, quantity, valuerelationsign, quantitativeresult) VALUES
  ('CCCc1nn(C)c2c(=O)[nH]c(-c3cc(S(=O)(=O)N4CCN(CCC(=O)NO)CC4)ccc3OCC)nc12', 'Protein deacetylase HDAC6 (Homo sapiens)', 'IC50', '=', 2360),
  ('CCCc1nn(C)c2c(=O)[nH]c(-c3cc(NC4CCN(c5ncc(C(=O)NO)cn5)CC4)ccc3OCC)nc12', 'Protein deacetylase HDAC6 (Homo sapiens)', 'IC50', '=', 441),
  ('CCCc1nn(C)c2c(=O)[nH]c(-c3cc(-c4ccc(C(=O)NO)cn4)ccc3OCC)nc12', 'Protein deacetylase HDAC6 (Homo sapiens)', 'IC50', '=', 79),
  ('CCCc1nn(C)c2c(=O)[nH]c(-c3cc(C4CC4C(=O)NO)ccc3OCC)nc12 (configuration not stated)', 'Protein deacetylase HDAC6 (Homo sapiens)', 'IC50', '=', 5370),
  ('CCCc1nn(C)c2c(=O)[nH]c(-c3cc(N(C)C4CCN(c5ncc(C(=O)NO)cn5)CC4)ccc3OCC)nc12', 'Protein deacetylase HDAC6 (Homo sapiens)', 'IC50', '=', 584),
  ('CCCc1nn(C)c2c(=O)[nH]c(-c3cc(NCCC(=O)NO)ccc3OCC)nc12', 'Protein deacetylase HDAC6 (Homo sapiens)', 'IC50', '=', 10400),
  ('CCCc1nn(C)c2c(=O)[nH]c(-c3cc(S(=O)(=O)N4CCN(Cc5ccc(/C=C/C(=O)NO)cc5)CC4)ccc3OCC)nc12', 'Protein deacetylase HDAC6 (Homo sapiens)', 'IC50', '=', 89),
  ('CCCc1nn(C)c2c(=O)[nH]c(-c3cc(CC4CCN(CCC(=O)NO)CC4)ccc3OCC)nc12', 'Protein deacetylase HDAC6 (Homo sapiens)', 'IC50', '>', 20000),
  ('CCCc1nn(C)c2c(=O)[nH]c(-c3cc(CCC(=O)NO)ccc3OCC)nc12', 'Protein deacetylase HDAC6 (Homo sapiens)', 'IC50', '=', 2120),
  ('CCCc1nn(C)c2c(=O)[nH]c(-c3cc(CC(=O)NO)ccc3OCC)nc12', 'Protein deacetylase HDAC6 (Homo sapiens)', 'IC50', '>', 20000),
  ('CCCc1nn(C)c2c(=O)[nH]c(-c3cc(Cc4ccc(/C=C/C(=O)NO)cc4)ccc3OCC)nc12', 'Protein deacetylase HDAC6 (Homo sapiens)', 'IC50', '=', 1790),
  ('CCCc1nn(C)c2c(=O)[nH]c(-c3cc(CN4CCC(C(=O)NO)CC4)ccc3OCC)nc12', 'Protein deacetylase HDAC6 (Homo sapiens)', 'IC50', '=', 9640),
  ('CCCc1nn(C)c2c(=O)[nH]c(-c3cc(Cc4ccc(CCC(=O)NO)cc4)ccc3OCC)nc12', 'Protein deacetylase HDAC6 (Homo sapiens)', 'IC50', '=', 2350),
  ('CCCc1nn(C)c2c(=O)[nH]c(-c3cc(N4CCC5(CCN(c6ncc(C(=O)NO)cn6)CC5)C4)ccc3OCC)nc12', 'Protein deacetylase HDAC6 (Homo sapiens)', 'IC50', '=', 1900),
  ('CCCc1nn(C)c2c(=O)[nH]c(-c3cc(NC4CCC(C(=O)NO)CC4)ccc3OCC)nc12 (configuration not stated)', 'Protein deacetylase HDAC6 (Homo sapiens)', 'IC50', '=', 12700),
  ('CCCc1nn(C)c2c(=O)[nH]c(-c3cc(CN4CCN(c5ncc(C(=O)NO)cn5)CC4)ccc3OCC)nc12', 'Protein deacetylase HDAC6 (Homo sapiens)', 'IC50', '=', 379),
  ('CCCc1nn(C)c2c(=O)[nH]c(-c3cc(S(=O)(=O)N4CCC(CCC(=O)NO)CC4)ccc3OCC)nc12', 'Protein deacetylase HDAC6 (Homo sapiens)', 'IC50', '=', 87);

---

Entries and their pIC50
Target: Protein deacetylase HDAC6 (Homo sapiens, UniProt Q9UBN7)
Sequence (Q9UBN7 whole entry): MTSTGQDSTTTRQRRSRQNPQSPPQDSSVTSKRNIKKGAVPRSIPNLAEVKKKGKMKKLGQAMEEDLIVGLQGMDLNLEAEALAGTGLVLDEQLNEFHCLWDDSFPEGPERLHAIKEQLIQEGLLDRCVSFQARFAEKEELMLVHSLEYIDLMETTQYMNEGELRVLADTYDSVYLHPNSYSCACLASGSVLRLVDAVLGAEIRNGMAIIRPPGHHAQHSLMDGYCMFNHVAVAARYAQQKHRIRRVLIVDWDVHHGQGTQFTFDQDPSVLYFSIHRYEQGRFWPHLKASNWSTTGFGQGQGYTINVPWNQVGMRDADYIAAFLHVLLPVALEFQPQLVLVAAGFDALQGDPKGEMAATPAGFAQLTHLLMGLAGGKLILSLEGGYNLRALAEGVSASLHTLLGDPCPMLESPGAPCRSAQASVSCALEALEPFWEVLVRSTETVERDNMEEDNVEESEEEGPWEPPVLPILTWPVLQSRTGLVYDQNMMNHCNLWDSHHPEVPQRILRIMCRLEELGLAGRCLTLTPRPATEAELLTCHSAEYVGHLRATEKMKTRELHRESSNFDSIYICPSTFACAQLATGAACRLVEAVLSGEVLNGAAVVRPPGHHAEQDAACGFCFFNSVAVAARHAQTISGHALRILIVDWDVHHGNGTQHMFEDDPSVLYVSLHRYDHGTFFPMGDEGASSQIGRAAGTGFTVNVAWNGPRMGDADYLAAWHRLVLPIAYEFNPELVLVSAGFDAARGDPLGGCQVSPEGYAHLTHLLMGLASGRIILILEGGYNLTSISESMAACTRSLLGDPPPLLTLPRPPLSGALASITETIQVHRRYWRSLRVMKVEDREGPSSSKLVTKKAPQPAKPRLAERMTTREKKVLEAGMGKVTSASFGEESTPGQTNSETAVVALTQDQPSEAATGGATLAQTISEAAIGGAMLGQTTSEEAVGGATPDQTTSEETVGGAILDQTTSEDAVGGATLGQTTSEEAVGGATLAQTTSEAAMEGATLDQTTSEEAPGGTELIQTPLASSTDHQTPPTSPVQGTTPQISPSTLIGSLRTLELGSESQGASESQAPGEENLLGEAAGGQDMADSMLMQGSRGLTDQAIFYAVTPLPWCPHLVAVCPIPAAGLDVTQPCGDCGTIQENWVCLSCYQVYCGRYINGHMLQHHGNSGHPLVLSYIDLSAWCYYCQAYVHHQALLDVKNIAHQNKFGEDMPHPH
Experiment: Inhibition of full length recombinant human N-terminal GST tagged HDAC6 expressed in baculovirus infected Sf9 cells using fluorogenic HDAC substrate after 30 mins by fluorescence analysis
pIC50: −log10 of the molar value.
quantity: pIC50

INSERT INTO assay_data (compound, targetdesc, quantity, quantitativeresult) VALUES
  ('CCCc1nn(C)c2c(=O)[nH]c(-c3cc(N4CCC5(CCC(C(=O)NO)C5)CC4)ccc3OCC)nc12 (centres undefined)', 'Protein deacetylase HDAC6 (Homo sapiens, UniProt Q9UBN7)', 'pIC50', 5.36),
  ('CCCc1nn(C)c2c(=O)[nH]c(-c3cc(S(=O)(=O)N4CCN(c5ncc(C(=O)NO)cn5)CC4)ccc3OCC)nc12', 'Protein deacetylase HDAC6 (Homo sapiens, UniProt Q9UBN7)', 'pIC50', 6.57),
  ('CCCc1nn(C)c2c(=O)[nH]c(-c3cc(CC4CCN(c5ccc(C(=O)NO)cn5)CC4)ccc3OCC)nc12', 'Protein deacetylase HDAC6 (Homo sapiens, UniProt Q9UBN7)', 'pIC50', 6.40),
  ('CCCc1nn(C)c2c(=O)[nH]c(-c3cc(C4CC(C(=O)NO)C4)ccc3OCC)nc12 (centres undefined)', 'Protein deacetylase HDAC6 (Homo sapiens, UniProt Q9UBN7)', 'pIC50', 6.89);
